Just for reference, paper PMC7144120 is where these values come from.

# measured target: Mtb proteasome (Mycobacterium tuberculosis, UniProt P9WHT9)
# Construct: made in house
# Sequence (P9WHT9 whole entry, looked up): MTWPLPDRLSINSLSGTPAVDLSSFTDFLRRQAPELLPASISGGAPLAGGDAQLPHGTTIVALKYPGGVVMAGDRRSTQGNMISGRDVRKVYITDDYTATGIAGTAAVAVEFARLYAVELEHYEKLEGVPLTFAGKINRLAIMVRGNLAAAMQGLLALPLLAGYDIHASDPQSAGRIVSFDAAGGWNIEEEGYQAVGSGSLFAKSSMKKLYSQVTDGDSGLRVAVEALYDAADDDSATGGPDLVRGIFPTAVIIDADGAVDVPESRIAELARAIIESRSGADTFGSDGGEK
# assay notes: biochemical
# Format: biochemical
measured attribute: RA at 100 µM against Mtb (%)
Report the value in % with no unit label.

Returns the measured RA at 100 µM against Mtb for the input compound. Input: Cc1c(CC(=O)ON2C(=O)CCC2=O)c(=O)oc2cc3occ(-c4ccc(Br)cc4)c3cc12
61

Returns the measured RA at 100 µM against Mtb for the input compound. Input: Cc1c(CCC(=O)O)c(=O)oc2cc3occ(-c4ccco4)c3cc12
55

Returns the measured RA at 100 µM against Mtb for the input compound. Input: Cc1coc2cc3oc(=O)c(CC(=O)O)c(C)c3cc12
61

Returns the measured RA at 100 µM against Mtb for the input compound. Input: Cc1cc(-c2coc3cc4oc(=O)c(CCC(=O)O)c(C)c4cc23)c(C)o1
76

Returns the measured RA at 100 µM against Mtb for the input compound. Input: Cc1c(CCC(=O)O)c(=O)oc2c(C)c3occ(-c4ccc(C(=O)O)cc4)c3cc12
98

Returns the measured RA at 100 µM against Mtb for the input compound. Input: Cc1cc(-c2coc3cc4oc(=O)c(CC(=O)O)c(C)c4cc23)c(C)s1
93

Returns the measured RA at 100 µM against Mtb for the input compound. Input: Cc1c(-c2nsc(=O)o2)c(=O)oc2cc3occ(-c4ccccc4)c3cc12
84

Returns the measured RA at 100 µM against Mtb for the input compound. Input: COc1ccc(-c2coc3cc4oc(=O)c(CCC(=O)ON5C(=O)CCC5=O)c(C)c4cc23)cc1
93

###

For each of the compounds below, state its RA at 100 µM against Mtb.
# measured target: Mtb proteasome (Mycobacterium tuberculosis, UniProt P9WHT9)
# Construct: made in house
# assay notes: biochemical
# Format: biochemical
Report the value in % with no unit label.

Recall the recorded RA at 100 µM against Mtb for Cc1c(CCC(=O)N(C)CC#N)c(=O)oc2cc3occ(C4CCCCC4)c3cc12 with Mtb proteasome (Mycobacterium tuberculosis, UniProt P9WHT9) and state it.
92

Recall the recorded RA at 100 µM against Mtb for Cc1cc(-c2coc3cc4oc(=O)c(CC(=O)NCC#N)c(C)c4cc23)c(C)s1 with Mtb proteasome (Mycobacterium tuberculosis, UniProt P9WHT9) and state it.
95

Recall the recorded RA at 100 µM against Mtb for Cc1cc(-c2coc3cc4oc(=O)c(CC(=O)N(C)CC#N)c(C)c4cc23)c(C)o1 with Mtb proteasome (Mycobacterium tuberculosis, UniProt P9WHT9) and state it.
100

Recall the recorded RA at 100 µM against Mtb for Cc1c(CC(=O)NCC#N)c(=O)oc2cc3occ(-c4ccc(Br)cc4)c3cc12 with Mtb proteasome (Mycobacterium tuberculosis, UniProt P9WHT9) and state it.
87

Recall the recorded RA at 100 µM against Mtb for Cc1c(CC(=O)N(C)CC#N)c(=O)oc2cc3occ(-c4ccco4)c3cc12 with Mtb proteasome (Mycobacterium tuberculosis, UniProt P9WHT9) and state it.
53

Recall the recorded RA at 100 µM against Mtb for Cc1c(CCC(=O)O)c(=O)oc2cc3occ(C(C)(C)C)c3cc12 with Mtb proteasome (Mycobacterium tuberculosis, UniProt P9WHT9) and state it.
95

Recall the recorded RA at 100 µM against Mtb for Cc1c(CC(=O)N(C)CC#N)c(=O)oc2cc3occ(C4CCCCC4)c3cc12 with Mtb proteasome (Mycobacterium tuberculosis, UniProt P9WHT9) and state it.
100

Recall the recorded RA at 100 µM against Mtb for Cc1c(CC(=O)ON2C(=O)CCC2=O)c(=O)oc2cc3occ(-c4ccco4)c3cc12 with Mtb proteasome (Mycobacterium tuberculosis, UniProt P9WHT9) and state it.
56

Recall the recorded RA at 100 µM against Mtb for Cc1cc(-c2coc3cc4oc(=O)c(CCC(=O)NCC#N)c(C)c4cc23)c(C)s1 with Mtb proteasome (Mycobacterium tuberculosis, UniProt P9WHT9) and state it.
100

Recall the recorded RA at 100 µM against Mtb for Cc1c(CCC(=O)NCC#N)c(=O)oc2cc3occ(C4CCCCC4)c3cc12 with Mtb proteasome (Mycobacterium tuberculosis, UniProt P9WHT9) and state it.
96

Recall the recorded RA at 100 µM against Mtb for Cc1c(CC(=O)N(C)CC#N)c(=O)oc2cc3occ(C(C)(C)C)c3cc12 with Mtb proteasome (Mycobacterium tuberculosis, UniProt P9WHT9) and state it.
97

Recall the recorded RA at 100 µM against Mtb for Cc1c(CCC(=O)ON2C(=O)CCC2=O)c(=O)oc2cc3c(cc12)C(c1ccccc1)CO3 (racemic) with Mtb proteasome (Mycobacterium tuberculosis, UniProt P9WHT9) and state it.
95

Recall the recorded RA at 100 µM against Mtb for Cc1c(CCC(=O)N(C)CC#N)c(=O)oc2cc3occ(-c4ccco4)c3cc12 with Mtb proteasome (Mycobacterium tuberculosis, UniProt P9WHT9) and state it.
82

Recall the recorded RA at 100 µM against Mtb for Cc1c(CC(=O)N(C)CC#N)c(=O)oc2cc3occ(-c4ccccc4)c3cc12 with Mtb proteasome (Mycobacterium tuberculosis, UniProt P9WHT9) and state it.
93

Recall the recorded RA at 100 µM against Mtb for Cc1c(CC(=O)O)c(=O)oc2cc3occ(-c4ccco4)c3cc12 with Mtb proteasome (Mycobacterium tuberculosis, UniProt P9WHT9) and state it.
79

Recall the recorded RA at 100 µM against Mtb for Cc1c(CCC(=O)O)c(=O)oc2cc3occ(-c4ccccc4)c3cc12 with Mtb proteasome (Mycobacterium tuberculosis, UniProt P9WHT9) and state it.
72

Recall the recorded RA at 100 µM against Mtb for Cc1c(CC(=O)O)c(=O)oc2cc3occ(C(C)(C)C)c3cc12 with Mtb proteasome (Mycobacterium tuberculosis, UniProt P9WHT9) and state it.
97
